growth inhibition reference
Assay Overview: antimalarial activity against Dd2 strain (AID 2302);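 note: 0% = DMSO untreated growth and 100% = chloroquine plus artemisinin killed control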
Recorded Conditions: P. falciparum Dd2 in RBCs, LDH growth readout, 72 h; at 2 µM; active compounds read high
Return type: number; implicit unit %.

Observe how each entry below is paired with its result.
Cc1cc(N[C@@H](CC(C)C)C(=O)Nc2ccccc2)nc(NCCc2ccccc2)n1	87
CC(=O)Nc1ccc(C(=O)NC2CCN(c3ccnc4cc(Cl)ccc34)C2)cc1 (centres undefined)	100
O=C(NCCCN1CCC(Cc2ccccc2)CC1)c1cc2c(Cl)nc3ccccc3c2s1	40
O=C(CCC1CCCC1)N(Cc1ccc(-c2ccc(CNCCc3ccccc3)cc2)cc1)C1CCCNC1 (centres undefined)	71

For NC(=NC1CC1)c1ccc2nc(CCCCCc3nc4ccc(C(N)=NC5CC5)cc4[nH]3)[nH]c2c1 , write its growth inhibition.
72

Note growth inhibition for the compound shown: O=C(Cc1ccccc1)NC(c1ccc(Cl)cc1)c1ccc2cccnc2c1O (centres undefined)
64

Report growth inhibition, nothing else, for this compound: c1ccc(-c2cc(NCCNc3cc(-c4ccccc4)nc4ccccc34)c3ccccc3n2)cc1
11

Name the recorded growth inhibition of the item Cc1cccc2[nH]c(-c3cccc(-c4ccc(NC(=O)c5cccc(C(N)=O)c5)cc4)c3)nc12 in your answer.
61

Hello, please tell me recorded growth inhibition for this one: CN1CCC(C(=O)N(Cc2ccc(-c3ccc(CNCCc4ccccc4)cn3)cc2)Cc2cccc(F)c2)CC1
80
